- measurementTarget: cathepsin B (Homo sapiens, UniProt P07858)
- experiment: square wave voltammetry
Where no end group is shown, it is not given here.
metric: pKd
Schema: pKd number; meaning minus log10 of the concentration expressed in molar units.

Return reported pKd. Input binder: WDMWPSMDWKAE (also: displayed on M13 phage pIII) [CTSB 4-1 phage-displayed peptide]
7.13
